This collection of values is drawn from patent US4902622A.

In this section, each of the molecules is paired with its reported Remaining activity (%).
# System: α-1,6-glucosidase
# assay.comment: Influence of metal salt on enzyme activity
# Type: biochemical, Bacillus sectorramus
# condition.set: 50 mM acetic acid buffer (pH 4.5), 30 minutes at 40° C., final concentration of metal salt 5 mM
Your answer should be a plain number; it is taken to be in %.

Worked examples follow.
chem.smiles	Remaining activity (%)
O.O.O.O.O.O.[Cl][Ni][Cl]	102.7
Cl.Cl.[Ag]	2.7
O.O.[Cl][Sn][Cl]	82.1

-- ask What does the record list as Remaining activity (%) for `O.O.O.O.O.O.[Cl-].[Cl-].[Mg+2]` ?
-- reply 91.3

-- ask Then `[Cl][Fe][Cl]` ?
-- reply 82.1

-- ask Then `[Ba+2].[Cl-].[Cl-]` ?
-- reply 98.9

-- ask Then `[Cl-].[Cl-].[Sr+2]` ?
-- reply 74.5

-- ask Then `[Cl-].[Cl-].[Co+2]` ?
-- reply 87.7

====

# System: α-1,6-glucosidase
# assay.comment: Influence of inhibitor on enzyme activity
# Assay type: biochemical, Bacillus sectorramus
# condition.set: 50 mM acetic acid buffer (pH 4.5), 30 minutes at 40° C., final concentration of inhibitor 1 mM
outcome.measure: Remaining activity (%)
Your answer should be a plain number; it is taken to be in %.

Worked examples follow.
molecule	reading.unit	Remaining activity (%)
c1cnc2c(c1)ccc1cccnc12 [o-phenanthroline]	%	109.0
CCN1C(=O)C=CC1=O [N--ethylmaleimide]	%	65.5
CCCCCCCCCCCCOS(=O)(=O)[O-].[Na+] [SDS, sodium dodecylsulfate]	%	1.5

In the following, a different molecule is considered.
-- ask Short answer please: Remaining activity (%), α-1,6-glucosidase, entry O=C(O)c1cc[c]([Hg][Cl])cc1 [PCMB, p-chloromercuribenzoic acid]
-- reply 27.1

====

# Test system: α-1,6-glucosidase
# assay.comment: Influence of metal salt on enzyme activity
# Assay type: biochemical, Bacillus sectorramus
# condition.set: 50 mM acetic acid buffer (pH 4.5), 30 minutes at 40° C., final concentration of metal salt 5 mM
In this section, each of the molecules is paired with its reported Remaining activity (%).
Your answer should be a plain number; it is taken to be in %.

Worked examples follow.
chem.smiles	Remaining activity (%)
[Ca+2].[Cl-].[Cl-]	79.1
[Cl-].[Cl-].[Zn+2]	97.3
[Cl][Fe]([Cl])[Cl]	57.8
O.O.[Cl][Cu][Cl]	73.4
[Cl][Hg][Cl]	0
O.O.O.O.O.[Cd+2].[Cd+2].[Cl-].[Cl-].[Cl-].[Cl-]	92.4

In the following, a different molecule is considered.
-- ask Short answer please: Remaining activity (%), α-1,6-glucosidase, entry `O.O.O.O.[Cl][Mn][Cl]`
-- reply 85.9
